Data origin: ChEMBL document CHEMBL1147922

# reported MIC; entries follow
System: Staphylococcus aureus
ASSAY_OVERVIEW: Antibacterial activity against Staphylococcus aureus ATCC 13709
Assay type: functional
I only need the number, in µg/mL, no unit after it.

INSERT INTO measurements (compound, unit_tag, recorded_value) VALUES
  ('CCOC(=O)c1cc2c(cc1C(=O)NC1CCc3nn(-c4ccnc5ccc(OC)nc45)cc3C1)NC(=O)CS2 (centres undefined)', 'µg/mL', 0.5);

// COc1ccc2nccc(-n3cc4c(n3)CCC(NCc3ccc5c(c3)NCCS5)C4)c2c1 (centres undefined) : MIC value = 0.5

// COc1ccc2nccc(-n3cc4c(n3)CCC(NC(=O)c3cc5ccccc5[nH]3)C4)c2c1 (centres undefined) : MIC value = 1

// COc1ccc2nccc(-n3cc4c(n3)CCC(NC(=O)c3ccc5c(c3)NC(=O)CS5)C4)c2c1 (centres undefined) : MIC value = 0.25
